# assayed.target: CDK6/CCND1 (Homo sapiens, UniProt Q00534)
# Sequence (Q00534 whole entry): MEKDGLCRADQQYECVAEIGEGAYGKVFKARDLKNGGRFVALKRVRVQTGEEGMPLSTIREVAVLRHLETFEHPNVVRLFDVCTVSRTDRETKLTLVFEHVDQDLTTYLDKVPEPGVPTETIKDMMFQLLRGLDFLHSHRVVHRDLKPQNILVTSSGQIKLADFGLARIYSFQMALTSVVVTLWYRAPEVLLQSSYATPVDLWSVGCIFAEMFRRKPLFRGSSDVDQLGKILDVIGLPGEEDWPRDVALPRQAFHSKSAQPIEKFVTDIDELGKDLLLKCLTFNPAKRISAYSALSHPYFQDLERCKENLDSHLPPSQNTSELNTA
# Sequence (P24385 whole entry partner): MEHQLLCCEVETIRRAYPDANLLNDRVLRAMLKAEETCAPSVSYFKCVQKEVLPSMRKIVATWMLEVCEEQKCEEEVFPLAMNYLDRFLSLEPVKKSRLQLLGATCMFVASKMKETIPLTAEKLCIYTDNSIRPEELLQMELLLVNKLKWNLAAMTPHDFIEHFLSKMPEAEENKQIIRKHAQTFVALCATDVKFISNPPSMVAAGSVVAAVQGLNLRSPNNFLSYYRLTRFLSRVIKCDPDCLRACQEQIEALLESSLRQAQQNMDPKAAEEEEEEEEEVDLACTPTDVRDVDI
# test: CDK6 homogeneous time-resolved fluorescence (HTRF) kinase assay
# Type: biochemical
# experimental.conditions: CDK6/CCND; >250 nM marked x; read-out: CDK6/CCND IC50 >250 nM
pIC50: −log10 of the molar value.
measure: pIC50

# count of solved cases: 5
- O=S(=O)(CCO)c1ccc(Nc2cc3c(N4CCC(O)C4)nccc3cn2)cc1 (racemic): < 6.60
- CS(=O)(=O)c1ccc(Nc2cc3c(C4CCN(Cc5ccc(Cl)cc5)C4)nccc3cn2)cc1 (racemic): < 6.60
- CS(=O)(=O)c1ccc(Nc2cc3c(C4CCN(Cc5ccccc5)C4)nccc3cn2)cc1 (racemic): < 6.60
- Cc1cc(S(C)(=N)=O)ccc1Nc1cc2c(C#Cc3ccc4c(c3)NC(=O)C43CCC3)nccc2cn1 (single isomer, unassigned): < 6.60
- CN1CCC(c2nccc3cnc(Nc4ccc(S(C)(=O)=O)cc4)cc23)C1 (racemic): < 6.60

# input Which pIC50 value belongs to Cc1cc2[nH]ncc2cc1-c1nccc2cnc(Nc3ccc(S(=O)(=O)CCO)cc3)cc12 ?
# output < 6.60

# input Using the record for Cc1cc(S(C)(=N)=O)ccc1Nc1cc2c(C#Cc3ccc4c(c3)NC(=O)C43CC3)nccc2cn1 (single isomer, unassigned) , report its pIC50.
# output < 6.60

* * *

# assayed.target: CDK6/CCND1 (Homo sapiens)
# test: CDK6 homogeneous time-resolved fluorescence (HTRF) kinase assay
# Type: biochemical
# experimental.conditions: CDK6/CCND; <25 nM; read-out: CDK6/CCND IC50 <25 nM
Measured IC50 values are reported for all entries that follow.

Solved entries (count: 8):
* CS(=O)(=O)N1CCC(Nc2cc3c(C4CCCCC4)nccc3cn2)CC1 [Example 21] | < 25 nM
* Cc1c(-c2nccc3cnc(Nc4ccc(S(C)(=O)=O)cc4)cc23)ccc2c1cnn2CC1CNC1 [Ex 207] | < 25 nM
* Oc1ccc(Nc2cc3c(C4=CCCCC4)nccc3cn2)cc1 [Ex 99] | < 25 nM
* CS(=O)(=O)N1CCC(Nc2cc3c(N4CCC(F)(F)CC4)nccc3cn2)CC1 [Ex 47] | < 25 nM
* CC1CCCCN1c1nccc2cnc(NC3CCN(S(C)(=O)=O)CC3)cc12 (racemic) [Ex 34] | < 25 nM
* COC1CCN(c2nccc3cnc(NC4CCN(S(C)(=O)=O)CC4)cc23)CC1 [Ex 50] | < 25 nM
* CN1CCN(c2nccc3cnc(NC4CCN(S(C)(=O)=O)CC4)cc23)CC1 [Ex 29] | < 25 nM
* CS(=O)(=O)N1CCC(Nc2cc3c(-c4ccc5cc[nH]c5c4)nccc3cn2)CC1 [Ex 89] | < 25 nM

# input For the compound CS(=O)(=O)N1CCC(Nc2cc3c(N4CCC(CO)CC4)nccc3cn2)CC1 [Ex 41] , what IC50 is on record?
# output < 25 nM

* * *

# assayed.target: CDK1/CCNB1 (Homo sapiens)
# Sequence (P06493 whole entry): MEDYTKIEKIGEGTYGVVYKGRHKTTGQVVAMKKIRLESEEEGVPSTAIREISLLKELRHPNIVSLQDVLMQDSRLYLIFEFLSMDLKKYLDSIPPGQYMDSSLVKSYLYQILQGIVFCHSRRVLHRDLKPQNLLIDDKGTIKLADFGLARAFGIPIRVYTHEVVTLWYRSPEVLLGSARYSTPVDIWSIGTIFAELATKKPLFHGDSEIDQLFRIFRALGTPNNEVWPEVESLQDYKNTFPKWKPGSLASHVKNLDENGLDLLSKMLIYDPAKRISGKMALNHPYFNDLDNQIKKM
# Sequence (P14635 whole entry partner): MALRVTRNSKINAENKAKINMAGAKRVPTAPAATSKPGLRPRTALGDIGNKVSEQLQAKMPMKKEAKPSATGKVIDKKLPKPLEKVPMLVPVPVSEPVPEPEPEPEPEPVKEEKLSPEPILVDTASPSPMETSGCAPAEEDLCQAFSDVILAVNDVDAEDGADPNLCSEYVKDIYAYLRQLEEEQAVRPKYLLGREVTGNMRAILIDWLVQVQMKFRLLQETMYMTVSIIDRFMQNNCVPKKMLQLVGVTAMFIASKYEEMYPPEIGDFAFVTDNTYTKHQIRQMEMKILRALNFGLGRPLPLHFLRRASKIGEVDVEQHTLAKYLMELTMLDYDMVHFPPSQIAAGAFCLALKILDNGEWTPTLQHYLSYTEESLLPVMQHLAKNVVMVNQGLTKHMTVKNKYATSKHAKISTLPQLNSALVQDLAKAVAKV
# test: CDK1 homogeneous time-resolved fluorescence (HTRF) kinase assay
# Assay type: biochemical
# experimental.conditions: CDK1/CCNB; 25-250 nM marked x; read-out: CDK1/CCNB IC50 25-250 nM
Known IC50 of a selection of molecules

Some solved cases for reference:
* CCN(C)c1nccc2cnc(NC3CCN(S(C)(=O)=O)CC3)cc12 | 25 to 250 nM
* CS(=O)(=O)N1CCC(Nc2cc3c(C4=CCCCC4)nccc3cn2)CC1 | 25 to 250 nM
* CS(=O)(=O)N1CCC(Nc2cc3c(C4CCCCC4)nccc3cn2)CC1 | 25 to 250 nM
* CS(=O)(=O)c1ccc(Nc2cc3c(C4=CCCCC4)nccc3cn2)cc1 | 25 to 250 nM
* CS(=O)(=O)c1ccc(Nc2cc3c(C#C[C@H]4CC[C@H](C(N)=O)CC4)nccc3cn2)cc1 | 25 to 250 nM

# input Any idea what its IC50 is? The molecule is CS(=O)(=O)N1CCC(Nc2cc3c(OCc4ccccc4)nccc3cn2)CC1
# output 25 to 250 nM

# input Would you kindly share the measured IC50 for N=S(=O)(c1ccc(Nc2cc3c(C#Cc4ccc5c(c4)NC(=O)C54CC4)nccc3cn2)c(F)c1)C1COC1 (single isomer, unassigned) ?
# output 25 to 250 nM

# input Consider the molecule CC(C)S(=N)(=O)c1ccc(Nc2cc3c(C#Cc4ccc5c(c4)NC(=O)C5(C)CO)nccc3cn2)cc1 (single isomer, unassigned) and give its measured IC50.
# output 25 to 250 nM

* * *

# assayed.target: CDK2/CCNE1 (Homo sapiens, UniProt P24941)
# test: CDK2 homogeneous time-resolved fluorescence (HTRF) kinase assay
# Type: biochemical
# experimental.conditions: CDK2/CCNE; <25 nM; read-out: CDK2/CCNE IC50 <25 nM
pIC50: −log10 of the molar value.
measure: pIC50

- CS(=O)(=O)N1CCC(Nc2cc3c(-c4ccc5ocnc5c4)nccc3cn2)CC1: > 7.60

# input Endpoint output: pIC50 of Cc1cc2[nH]ncc2cc1-c1nccc2cnc(NC3CCN(S(C)(=O)=O)CC3)cc12 . Value?
# output > 7.60

# input Quick check: pIC50 of CS(=O)(=O)N1CCC(Nc2cc3c(-c4ccc(C#N)cc4)nccc3cn2)CC1 ?
# output > 7.60

# input Value lookup for pIC50; key = O=C(O)c1ccc(Nc2cc3c(C4=CCCCC4)nccc3cn2)cc1
# output > 7.60

# input pIC50 lookup needed for COCc1cccc(-c2nccc3cnc(NC4CCN(S(C)(=O)=O)CC4)cc23)c1 , thanks.
# output > 7.60

* * *

# assayed.target: CDK2/CCNE1 (Homo sapiens)
# test: CDK2 homogeneous time-resolved fluorescence (HTRF) kinase assay
# Format: biochemical
# experimental.conditions: <25 nM; CDK2/CCNE; read-out: CDK2/CCNE IC50, <25 nM
Examples of compounds with documented IC50 follow.

Take a look at these entries with their results.
- Cc1c(-c2nccc3cnc(Nc4ccc(S(=O)(=O)NC5CCNC5)cc4)cc23)ccc2c1cnn2CC(C)(C)O (racemic): < 25 nM
- Cc1c(-c2nccc3cnc(Nc4ccc(NS(=O)(=O)c5cnccn5)cc4)cc23)ccc2c1cnn2CC(C)(C)O: < 25 nM

Now examine the next entry.
# input Kindly state the measured IC50 obtained for N=S(=O)(c1ccc(Nc2cc3c(C#Cc4cnc5c(c4)NC(=O)CO5)nccc3cn2)cc1)C1CCC1 (stereo not drawn) with CDK2/CCNE1 (Homo sapiens).
# output < 25 nM

* * *

Catalogue of IC50 values
# assayed.target: CDK4/CCND3 (Homo sapiens, UniProt P11802)
# Sequence (P11802 whole entry): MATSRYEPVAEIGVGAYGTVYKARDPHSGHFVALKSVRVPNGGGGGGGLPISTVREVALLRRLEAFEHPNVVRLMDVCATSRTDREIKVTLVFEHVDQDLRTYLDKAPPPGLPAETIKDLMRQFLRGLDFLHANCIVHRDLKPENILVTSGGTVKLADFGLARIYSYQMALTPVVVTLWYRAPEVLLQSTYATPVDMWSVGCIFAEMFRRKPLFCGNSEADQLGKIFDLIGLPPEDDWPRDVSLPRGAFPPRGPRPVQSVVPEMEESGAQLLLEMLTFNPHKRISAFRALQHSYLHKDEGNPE
# Sequence (P30281 whole entry partner): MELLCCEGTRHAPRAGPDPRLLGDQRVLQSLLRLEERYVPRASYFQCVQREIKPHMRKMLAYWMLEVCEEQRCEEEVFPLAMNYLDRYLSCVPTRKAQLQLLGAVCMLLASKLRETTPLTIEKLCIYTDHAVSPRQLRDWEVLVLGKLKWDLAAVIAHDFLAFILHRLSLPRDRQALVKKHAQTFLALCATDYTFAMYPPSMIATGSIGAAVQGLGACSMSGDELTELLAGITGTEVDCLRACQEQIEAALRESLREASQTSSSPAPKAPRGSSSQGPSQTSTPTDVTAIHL
# test: CDK4 homogeneous time-resolved fluorescence (HTRF) kinase assay
# Assay type: biochemical
# experimental.conditions: CDK4/CCND; x = IC50 >250 nM; read-out: CDK4/CCND IC50 (>250 nM column)

- O=C1Nc2cc(C#Cc3nccc4cnc(Nc5ccc(S(=O)(=O)C6CCC6)cc5)cc34)ccc2C12CCC2: > 250 nM

# input Can you look up the measured IC50 of CS(=O)(=O)c1ccc(Nc2cc3c(C#Cc4ccc(O)cc4F)nccc3cn2)cc1 for me?
# output > 250 nM

# input Which IC50 value is on record for CS(=O)(=O)c1ccc(Nc2cc3c(C#Cc4ccc(OC(F)F)cc4)nccc3cn2)cc1 ?
# output > 250 nM
